The values you see were collected from PubChem BioAssay (NCI).

- Tested on: K-562 leukemia
- method_description: NCI-60 one-dose screen, 48 h (100 = growth as untreated, 0 = no growth, -100 = all killed)
- setup_conditions: 10 µM unless noted
- Procedure: Cells are grown in 96 well plates and exposed to the test compound for 48 hours. Compounds are tested at a single concentration, which is 10^-5 M for most compounds. The reported endpoint is percent growth (GI% or GIPRCNT), where numbers from 0 - 100% represent growth inhibition, and numbers from -100% - 0 represent cell death. For example, a value of 40 represents 60% growth inhibition. A value of 0 means no net growth occurred over the course of the experiment. […]
This is part of a sample that, as a whole, favours compounds with a hit. Of some 83,000 tested, about 20% had one in any assay.
parameter_measured: growth (%)

1) COC(C(=O)[C@@H](O)[C@@H](C)O)[C@@H]1Cc2cc3cc(O[C@H]4C[C@@H](O[C@H]5C[C@@H](O)[C@H](O)C(C)O5)[C@H](O)C(C)O4)c(C)c(O)c3c(O)c2C(=O)[C@H]1O[C@H]1C[C@@H](O[C@H]2C[C@@H](O[C@H]3C[C@@H](O)[C@@H](O)C(C)O3)[C@@H](O)C(C)O2)[C@H](O)C(C)O1 (some centres undefined) | 9.59
2) Clc1cccc(N2COOC3(OOC2)C2CC4CC(C2)CC3C4)c1 | 66.2
3) O=C(Nc1ccc(O)cc1)C(Cl)(Cl)Cl | 98.2
4) Nc1ccc2c(c1)Cc1cc(Br)ccc1-2 | 92.2
5) CC[S][Hg][Cl] | 75.4
6) COc1ccc2c(c1)c(C1(O)CC(CSC#N)OC1=O)cn2C(=O)c1ccc(Cl)cc1 (centres undefined) | 98.5
7) C[C@]12CC[C@H]3[C@@H](CC4SC(N)=NC45C/C(=N/NC(N)=O)CC[C@]35C)[C@@H]1CCC2=O (some centres undefined) | -38.5
8) CCCC(C)C1(CC)C(=O)NC(=O)N(C)C1=O (centres undefined) | 102
9) CC[C@H](C)[C@H](NC(=O)N[C@@H](C)c1ccccc1)C(=O)N(C)[C@H](C[C@@H](OC(C)=O)c1nc(C(=O)N[C@@H](Cc2ccccc2)C[C@H](C)C(=O)OC)cs1)C(C)C | 14
